Test: The drug is tested on WLS-027 corresponding to human gut metagenome with ENA study accession number: PRJEB37062 and ENA sample accession number: ERS12561744 for biotransformation under anaerobic condition. The drug concentrations were measured over 9 timepoints collected between 0 and 24 hours of incubation by liquid-chromatography-coupled mass spectrometry (LC–MS); further: call rule not given here
Conditions: 2 µM
MEASURE_NAME: Bacterial Biotransformation

These recorded examples may help you get a feel for the data.
CC1Cc2ccccc2N1NC(=O)c1ccc(Cl)c(S(N)(=O)=O)c1 (configuration not stated) [INDAPAMIDE]: Compound NOT metabolized
CC[C@H](C)C(=O)O[C@H]1CCC=C2C=C[C@H](C)[C@H](CC[C@@H]3C[C@@H](O)CC(=O)O3)[C@H]21 [MEVASTATIN]: Compound metabolized
C=C[C@H]1CN2CC[C@H]1C[C@H]2[C@H](O)c1ccnc2ccc(OC)cc12.C=C[C@H]1CN2CC[C@H]1C[C@H]2[C@H](O)c1ccnc2ccc(OC)cc12.O.O.O=S(=O)(O)O [QUININE SULFATE]: Compound NOT metabolized
COc1cc2nc(N3CCN(C(=O)C4COc5ccccc5O4)CC3)nc(N)c2cc1OC.CS(=O)(=O)O (configuration not stated) [DOXAZOSIN MESYLATE]: Compound metabolized
CN1CCC(=C2c3ccccc3CC(=O)c3sccc32)CC1.O=C(O)/C=C/C(=O)O [KETOTIFEN FUMARATE]: Compound NOT metabolized

Task: Endpoint output: Bacterial Biotransformation of COc1cc(NC(C)CCCN)c2ncccc2c1.O=P(O)(O)O.O=P(O)(O)O (configuration not stated) [PRIMAQUINE PHOSPHATE] . Value?
Output: Compound NOT metabolized

Task: Endpoint output: Bacterial Biotransformation of COc1ccnc(C[S+]([O-])c2nc3ccc(OC(F)F)cc3[nH]2)c1OC (configuration not stated) [PANTOPRAZOLE] . Value?
Output: Compound metabolized

###

Test: The drug is tested on WLS-098 corresponding to human gut metagenome with ENA study accession number: PRJEB37062 and ENA sample accession number: ERS12561754 for biotransformation under anaerobic condition. The drug concentrations were measured over 9 timepoints collected between 0 and 24 hours of incubation by liquid-chromatography-coupled mass spectrometry (LC–MS)
Settings: 2 µM
MEASURE_NAME: Bacterial Biotransformation

O=C(CCCN1CCC2(CC1)C(=O)NCN2c1ccccc1)c1ccc(F)cc1: Compound metabolized
CC#C[C@]1(O)CC[C@H]2[C@@H]3CCC4=CC(=O)CCC4=C3[C@@H](c3ccc(N(C)C)cc3)C[C@@]21C: Compound NOT metabolized
OCCN(CCO)c1nc(N2CCCCC2)c2nc(N(CCO)CCO)nc(N3CCCCC3)c2n1: Compound metabolized
C[C@]12CCC(=O)C=C1[C@@H]1C[C@@H]1[C@H]1[C@@H]3[C@@H]4C[C@@H]4[C@@]4(CCC(=O)O4)[C@@]3(C)CC[C@@H]12: Compound NOT metabolized

###

Assay: The drug is tested on WLS-073 corresponding to human gut metagenome with ENA study accession number: PRJEB37062 and ENA sample accession number: ERS12561749 for biotransformation under anaerobic condition. The drug concentrations were measured over 9 timepoints collected between 0 and 24 hours of incubation by liquid-chromatography-coupled mass spectrometry (LC–MS)
Details: 2 µM
MEASURE_NAME: Bacterial Biotransformation

These recorded examples may help you get a feel for the data.
Clc1cccc(Cl)c1N=C1NCCN1 [CLONIDINE]: Compound NOT metabolized
CC(N)C12CC3CC(CC(C3)C1)C2 (stereo not given) [RIMANTADINE]: Compound NOT metabolized
CC(=O)O[C@]1(C(C)=O)CC[C@H]2[C@@H]3C=C(C)C4=CC(=O)CC[C@]4(C)[C@H]3CC[C@@]21C [MEGESTROL ACETATE]: Compound metabolized
Cc1nc(Nc2ncc(C(=O)Nc3c(C)cccc3Cl)s2)cc(N2CCN(CCO)CC2)n1 [DASATINIB ANHYDROUS]: Compound metabolized

Below: the item to evaluate.
Task: Endpoint output: Bacterial Biotransformation of CN(C)CCc1c[nH]c2ccc(CS(=O)(=O)N3CCCC3)cc12 [ALMOTRIPTAN] . Value?
Output: Compound NOT metabolized

// data source = ChEMBL document CHEMBL5724914
